Taken from patent US4080471A.

The following molecules are shown together with reported Enddiastolic volume values.
Tested on: heart
Assay: Effect on heart chronotropy and inotropy of a conscious dog
Details: change i.v. at heart frequency +10 beats/min, interpolated; calculated from left ventricle diameter; ouabain 30 μg/kg i.v., paced
quantity kind: Enddiastolic volume (%)

{"columns": ["molecule", "quantity kind", "meas value"],
 "data": [
  ["CC(C)NCC(O)COc1ccc(O)cc1 (stereo not shown) [Compound I]", "Enddiastolic volume", -9],
  ["CC(C)NCC(O)COc1ccc(OC(=O)C(C)C)cc1 (stereo not shown) [II]", "Enddiastolic volume", -8],
  ["C[C@@H]1O[C@@H](O[C@H]2C[C@@H](O)[C@]3(CO)[C@H]4[C@H](O)C[C@]5(C)[C@@H](C6=CC(=O)OC6)CC[C@]5(O)[C@@H]4CC[C@]3(O)C2)[C@H](O)[C@H](O)[C@H]1O [Ouabain, reference compound]", "Enddiastolic volume", -2],
  ["CC(C)NCC(O)c1ccc(O)c(O)c1 (stereo not shown) [Isoprenaline, reference compound]", "Enddiastolic volume", -2]
]}
